src = patent US11566007B2

Listed compounds paired with reported pIC50
# target-or-system: NRAS G12C (Homo sapiens (Human), UniProt P01111+P62937, G12C)
# Sequence (P01111 whole entry G12C, one chain of several): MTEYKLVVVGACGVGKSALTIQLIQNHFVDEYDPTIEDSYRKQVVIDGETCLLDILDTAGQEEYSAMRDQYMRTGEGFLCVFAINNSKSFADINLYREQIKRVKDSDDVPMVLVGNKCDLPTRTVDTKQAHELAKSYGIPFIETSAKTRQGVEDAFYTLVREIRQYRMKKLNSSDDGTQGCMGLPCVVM
# test-name: Ras-Raf (BRAF RBD) disruption / FRET / MOA assay, NRAS G12C
# Type: biochemical
# conditions-used: read-out: IC50* NRAS G12C FRET data
pIC50: −log10 of the molar value.

Worked cases, answers included:
compound	target-or-system	pIC50
CCn1c(-c2cccnc2[C@H](C)OC)c2c3cc(ccc31)-c1cc(O)cc(c1)C[C@H](NC(=O)[C@H](C(C)C)N(C)C(=O)c1ccc(NC(=O)/C=C/CN(C)C)cn1)C(=O)N1CCC[C@H](N1)C(=O)OCC(C)(C)C2 (atropisomer, axis not shown)	NRAS G12C (Homo sapiens (Human), UniProt P01111+P62937, G12C)	7.00 to 8.00
CCn1c(-c2cccnc2[C@H](C)OC)c2c3cc(ccc31)-c1cccc(c1)C[C@H](NC(=O)[C@H](C(C)C)N1CC[C@]3(CCN(C(=O)C#CC(C)(C)N(C)C)C3)C1=O)C(=O)N1CCC[C@H](N1)C(=O)OCC(C)(C)C2 (atropisomer, axis not shown)	NRAS G12C (Homo sapiens (Human), UniProt P01111+P62937, G12C)	> 8.00

Exercise: Request - read-out pIC50 | tested on NRAS G12C (Homo sapiens (Human), UniProt P01111+P62937, G12C) | compound C=CC(=O)N1CC(OC(=O)N(C)[C@H](C(=O)N[C@H]2Cc3cccc(c3)-c3ccc4c(c3)c(c(-c3cccnc3[C@H](C)OC)n4CC)CC(C)(C)COC(=O)[C@@H]3CCCN(N3)C2=O)C(C)C)C1 (atropisomer, axis not shown)
Solution: 7.00 to 8.00

Exercise: # returns recorded pIC50 (system: NRAS G12C (Homo sapiens (Human), UniProt P01111+P62937, G12C)) for C=CC(=O)NC1CN(C(=O)N(C)[C@H](C(=O)N[C@H]2Cc3nc(cs3)-c3ccc4c(c3)c(c(-c3cccnc3[C@H](C)OC)n4CC)CC(C)(C)COC(=O)[C@@H]3CCCN(N3)C2=O)C(C)C)C1 (atropisomer, axis not shown)
Solution: 7.00 to 8.00

---

# IC50 annotations
# target-or-system: NRAS G12C (Homo sapiens (Human), UniProt P01111+P62937, G12C)
# test-name: Ras-Raf (BRAF RBD) disruption / FRET / MOA assay, NRAS G12C
# Type: biochemical
# conditions-used: read-out: IC50* NRAS G12C FRET data

compound	IC50
C=CC(=O)N1CC[C@H](C(=O)N(C)[C@H](C(=O)N[C@H]2Cc3cccc(c3)-c3ccc4c(c3)c(c(-c3cc(CN(C)C)cnc3[C@H](C)OC)n4CC)CC(C)(C)COC(=O)[C@@H]3CCCN(N3)C2=O)C(C)C)C1 (atropisomer, axis not shown) [Example A522]	100 to 1000 nM
C=CC(=O)N1CCO[C@H]2CN(C(=O)N(C)[C@H](C(=O)N[C@H]3Cc4cccc(n4)-c4ccc5c(c4)c(c(-c4cccnc4[C@H](C)OC)n5CC(F)(F)F)CC(C)(C)COC(=O)[C@@H]4CCCN(N4)C3=O)C(C)C)C[C@H]21 (atropisomer, axis not shown)	10 to 100 nM
C#CCn1c(-c2cccnc2[C@H](C)OC)c2c3cc(ccc31)-c1cccc(c1)C[C@H](NC(=O)[C@H](C(C)C)N(C)C(=O)[C@H]1CCN(C(=O)C=C)C1)C(=O)N1CCC[C@H](N1)C(=O)OCC(C)(C)C2 (atropisomer, axis not shown)	100 to 1000 nM
C=CC(=O)N1CC[C@H](C(=O)N(C)[C@H](C(=O)N[C@H]2Cc3cccc(c3)-c3ccc4c(c3)c(c(-c3cc(CN(C)C)cnc3[C@H](C)OC)n4CC)CC(C)(C)COC(=O)[C@@H]3CCCN(N3)C2=O)C(C)C)C1 [Example A523]	1000 to 10000 nM

Exercise: Query (compound): CCn1c(-c2cccnc2[C@H](C)OC)c2c3cc(ccc31)-c1cccc(c1)C[C@H](NC(=O)[C@H](C1CCCC1)N(C)C(=O)[C@@H]1CN(C(=O)C#CC(C)(C)N(C)C)C[C@@H]1C)C(=O)N1CCC[C@H](N1)C(=O)OCC(C)(C)C2 (atropisomer, axis not shown) ; field requested: IC50
Solution: < 10 nM

Exercise: Which measured IC50 value corresponds to C=CC(=O)N1CCN(C(=O)N(C)[C@H](C(=O)N[C@H]2Cc3nc(cs3)-c3ccc4c(c3)c(c(-c3cccnc3[C@H](C)OC)n4CC)CC(C)(C)COC(=O)[C@@H]3CCCN(N3)C2=O)C(C)C)C[C@H]1C (atropisomer, axis not shown) ?
Solution: 10 to 100 nM

Exercise: Need IC50 of CC#CC(=O)N1CC2(CCN2C(=O)N(C)[C@H](C(=O)N[C@H]2Cc3nc(cs3)-c3ccc4c(c3)c(c(-c3cccnc3[C@H](C)OC)n4CC)CC(C)(C)COC(=O)[C@@H]3CCCN(N3)C2=O)C(C)C)C1 (atropisomer, axis not shown) , thanks.
Solution: 100 to 1000 nM

Exercise: So what does the record say about IC50 for C=CC(=O)Nc1cnc(OC[C@H](C(=O)N[C@H]2Cc3cccc(c3)-c3ccc4c(c3)c(c(-c3cccnc3[C@H](C)OC)n4CC)CC(C)(C)COC(=O)[C@@H]3CCCN(N3)C2=O)C(C)C)n1C (atropisomer, axis not shown) ?
Solution: < 10 nM

---

# target-or-system: KRAS G12S (Homo sapiens (Human), UniProt P01116+P62937, G12S)
# Sequence (P01116-2 other isoform, or with tags, fused parts or gaps G12S, one chain of several): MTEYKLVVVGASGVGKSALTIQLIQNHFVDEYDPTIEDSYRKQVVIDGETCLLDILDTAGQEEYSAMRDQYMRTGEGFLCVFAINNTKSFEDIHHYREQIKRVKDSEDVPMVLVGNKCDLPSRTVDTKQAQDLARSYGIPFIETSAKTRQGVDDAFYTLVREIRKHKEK
# test-name: Ras-Raf (BRAF RBD) disruption / FRET / MOA assay, KRAS G12S
# Assay type: biochemical
# conditions-used: Ras-Raf disruption/FRET/MOA assay; class symbols; read-out: KRAS G12S FRET data IC50
Measured IC50 values are reported for all entries that follow.

Example cases with answers are listed next.
compound	IC50
C=CC(=O)N1CC[C@H](C(=O)N(C)[C@H](C(=O)NC2C[C@@H]3CN(CCO3)c3ccc4c(c3)c(c(-c3cccnc3[C@H](C)OC)n4CC)CC(C)(C)COC(=O)[C@@H]3CCCN(N3)C2=O)C(C)C)C1 (some centres unmarked) [Example A312]	> 10000 nM
CC#CC(=O)N1C[C@H](C)[C@H](C(=O)N(C)[C@H](C(=O)N[C@H]2Cc3cccc(c3)-c3ccc4c(c3)c(c(-c3cccnc3[C@H](C)OC)n4CC)CC(C)(C)COC(=O)[C@@H]3CCCN(N3)C2=O)C2CCCC2)C1 (atropisomer, axis not shown) [Example A402]	1000 to 10000 nM
C=CC(=O)NCCN1CCN(C(=O)N(C)[C@H](C(=O)N[C@H]2Cc3nc(cs3)-c3ccc4c(c3)c(c(-c3cccnc3[C@H](C)OC)n4CC)CC(C)(C)COC(=O)[C@@H]3CCCN(N3)C2=O)C(C)C)CC1 (atropisomer, axis not shown) [Example A582]	100 to 1000 nM
C=CC(=O)N1CCOC2(CCN(C(=O)N(C)[C@H](C(=O)N[C@H]3Cc4nsc(n4)-c4ccc5c(c4)c(c(-c4cccnc4[C@H](C)OC)n5CC)CC(C)(C)COC(=O)[C@@H]4CCCN(N4)C3=O)C(C)C)CC2)C1 (atropisomer, axis not shown) [Example A545]	100 to 1000 nM
CCn1c(-c2cccnc2[C@H](C)OC)c2c3cc(ccc31)-c1csc(n1)C[C@H](NC(=O)[C@H](C(C)C)N(C)C(=O)N1CCN(C(=O)/C=C/CN3CCOCC3)C3(CC3)C1)C(=O)N1CCC[C@H](N1)C(=O)OCC(C)(C)C2 (atropisomer, axis not shown) [Example A665]	10 to 100 nM
CCn1c(-c2cccnc2[C@H](C)OC)c2c3cc(ccc31)-c1cccc(c1)C[C@H](NC(=O)[C@@H](COC1CN(C(=O)C#CC(C)(C)N3CCC3)C1)C(C)C)C(=O)N1CCC[C@H](N1)C(=O)OCC(C)(C)C2 (atropisomer, axis not shown) [Example A346]	> 10000 nM
C=CC(=O)C1CC[C@H](C(=O)N(C)[C@H](C(=O)N[C@H]2Cc3cc(O)cc(c3)-c3ccc4c(c3)c(c(-c3cnn(C)c3[C@H](C)OC)n4CC)CC(C)(C)COC(=O)[C@@H]3CCCN(N3)C2=O)C(C)C)C1 (some centres unmarked) [Example A166]	100 to 1000 nM

Alright, here's another compound for you.
Exercise: Any idea what IC50 was measured for C=CC(=O)N1CC[C@H](C(=O)N(C)[C@H](C(=O)N[C@H]2Cc3cc(O)cc(c3)-c3ccc4c(c3)c(c(-c3nccnc3COC)n4CC)CC(C)(C)COC(=O)[C@@H]3CCCN(N3)C2=O)C(C)C)C1 [Example A085] ?
Solution: > 10000 nM

---

# target-or-system: NRAS Q61R (Homo sapiens (Human), UniProt P01111+P62937, Q61R)
# Sequence (P01111 whole entry Q61R): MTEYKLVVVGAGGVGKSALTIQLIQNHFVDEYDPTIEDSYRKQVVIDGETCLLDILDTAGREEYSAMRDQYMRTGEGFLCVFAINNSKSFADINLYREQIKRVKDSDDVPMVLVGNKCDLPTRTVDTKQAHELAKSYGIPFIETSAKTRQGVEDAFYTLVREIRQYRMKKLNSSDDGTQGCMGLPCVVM
# Sequence (P62937 whole entry): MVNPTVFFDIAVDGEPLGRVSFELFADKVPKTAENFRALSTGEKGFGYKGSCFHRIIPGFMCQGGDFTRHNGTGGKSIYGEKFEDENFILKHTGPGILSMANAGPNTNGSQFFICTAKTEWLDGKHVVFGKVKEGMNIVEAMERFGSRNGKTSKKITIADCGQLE
# test-name: Ras-Raf (BRAF RBD) disruption / FRET / MOA assay, NRAS Q61R
# Assay type: biochemical
# conditions-used: NRAS Q61R; Ras-Raf disruption/FRET/MOA assay; read-out: IC50* NRAS Q61R FRET data
pIC50: −log10 of the molar value.
The entries below are paired with their reported pIC50.

Example cases with answers are listed next.
compound	pIC50
CCn1c(-c2cccnc2[C@H](C)OC)c2c3cc(ccc31)-c1cccc(c1)C[C@H](NC(=O)[C@H](C(C)C)N1CC[C@]3(CCN(C(=O)C#C[C@H]4COCCN4C4COC4)C3)C1=O)C(=O)N1CCC[C@H](N1)C(=O)OCC(C)(C)C2 (atropisomer, axis not shown)	< 5.00
C=CC(=O)N1CC[C@]2(CCN(C(=O)N(C)[C@H](C(=O)N[C@H]3Cc4nc(cs4)-c4ccc5c(c4)c(c(-c4cccnc4[C@H](C)OC)n5CC)CC(C)(C)COC(=O)[C@@H]4CCCN(N4)C3=O)C(C)C)C2)C1 (atropisomer, axis not shown)	7.00 to 8.00
C=CC(=O)N1CC2(C1)OCCN2C(=O)N(C)[C@H](C(=O)N[C@H]1Cc2nc(cs2)-c2ccc3c(c2)c(c(-c2cccnc2[C@H](C)OC)n3CC)CC(C)(C)COC(=O)[C@@H]2CCCN(N2)C1=O)C(C)C (atropisomer, axis not shown)	6.00 to 7.00
C=CC(=O)N1CCN(C(=O)N(C)[C@H](C(=O)N[C@H]2Cc3nc(cs3)-c3ccc4c(c3)c(c(-c3cccnc3[C@H](C)OC)n4CC)CC(C)(C)COC(=O)[C@@H]3CCCN(N3)C2=O)C(C)C)CC1 (atropisomer, axis not shown)	7.00 to 8.00

Exercise: Provide value of pIC50 for this record tested with NRAS Q61R (Homo sapiens (Human), UniProt P01111+P62937, Q61R): C=CC(=O)N1CC[C@H](C(=O)N(C)[C@@H](CC(F)(F)F)C(=O)N[C@H]2Cc3cccc(c3)-c3ccc4c(c3)c(c(-c3cccnc3[C@H](C)OC)n4CC)CC(C)(C)COC(=O)[C@@H]3CCCN(N3)C2=O)C1 (atropisomer, axis not shown)
Solution: 5.00 to 6.00

Exercise: Could you share what pIC50 was measured for C=CC(=O)N1CCN(C(=O)N(C)[C@H](C(=O)N[C@H]2Cc3nc(cs3)-c3ccc4c(c3)c(c(-c3cccnc3[C@H](C)OC)n4CC)CC(C)(C)COC(=O)[C@@H]3CCCN(N3)C2=O)C(C)C)[C@@H]2C[C@@H]21 (atropisomer, axis not shown) , tested on NRAS Q61R (Homo sapiens (Human), UniProt P01111+P62937, Q61R)?
Solution: 7.00 to 8.00

Exercise: Observed pIC50 on NRAS Q61R (Homo sapiens (Human), UniProt P01111+P62937, Q61R) for C=CC(=O)N1CC[C@H](C(=O)N(C)[C@H](C(=O)N[C@H]2Cc3cc(O)cc(c3)-c3ccc4c(c3)c(c(-c3cccc5c3COC5)n4CC)CC(C)(C)COC(=O)[C@@H]3CCCN(N3)C2=O)C(C)C)C1 , please.
Solution: < 5.00
